# Measurement target: hSULT1A3 (Homo sapiens, UniProt P0DMM9)
# Construct: 6-histidine tag (N); TEV site (N); made in house; host or cells: Escherichia coli BL21 (DE3), pET29a(+)
# Sequence (P0DMM9 whole entry): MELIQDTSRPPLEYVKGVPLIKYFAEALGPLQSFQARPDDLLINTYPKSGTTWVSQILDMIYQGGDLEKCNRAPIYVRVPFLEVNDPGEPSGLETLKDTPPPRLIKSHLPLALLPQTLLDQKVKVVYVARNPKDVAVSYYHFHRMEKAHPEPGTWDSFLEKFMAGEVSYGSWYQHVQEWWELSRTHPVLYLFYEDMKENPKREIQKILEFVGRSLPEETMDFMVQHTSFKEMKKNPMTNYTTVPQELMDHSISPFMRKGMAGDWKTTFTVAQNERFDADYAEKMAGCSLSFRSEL
# Experimental protocol: Fluorescence-based microplate inhibition assay, hSULT1A3-catalyzed HN-241 4-O-sulfation
# Type: biochemical
# Experimental context: test compound 10 μM, HN-241 10 μM, 15 min; read-out: Residue activity (%) hSULT1A3
Entry flag: Condition met if activity at 10 µM reaches 40%; Condition not met if it does not.

Worked examples follow.
COc1cc2c(c(OC)c1OC)C(=O)c1c(cc(C)c(O)c1OC)C2=O [Chrysoobtusin]
Condition not met
CC(C)=CCOc1c2ccoc2cc2oc(=O)ccc12 [Isoimperatorin]
Condition met
CC(C)=CCC[C@](C)(O)[C@H]1CC[C@]2(C)[C@@H]1[C@H](O)C[C@@H]1[C@@]3(C)CC[C@H](O)C(C)(C)[C@@H]3[C@@H](O[C@@H]3O[C@H](CO)[C@@H](O)[C@H](O)[C@H]3O[C@@H]3O[C@H](CO)[C@@H](O)[C@H](O)[C@H]3O)C[C@]12C [Ginsenoside Rf]
Condition met
COc1cc(O)c(CC=C(C)C)c2c1C(=O)CC(c1ccc(O)cc1)O2 (stereo not shown) [Isoxanthohumol]
Condition met
CCCCCCCCCCCCCCCC(=O)O [Palmitic acid]
Condition met
O=c1cc(-c2ccc(O)cc2)oc2c([C@@H]3O[C@H](CO)[C@@H](O)[C@H](O)[C@H]3O)c(O)cc(O)c12 [Vitexin]
Condition met
COc1cc(-c2oc3cc(O)cc(O)c3c(=O)c2O)ccc1O [Isorhamnetin]
Condition met
O=C(O[C@@H]1[C@@H](O)[C@H](Oc2cc(O)c(C(=O)CCc3ccccc3)c(O)c2)O[C@@H]2COC(=O)c3cc(O)c(O)c(O)c3-c3c(cc(O)c(O)c3O)C(=O)O[C@@H]12)c1cc(O)c(O)c(O)c1 [Thonningianin A]
Condition not met
C/C=C(/C)C(=O)O[C@H]1c2cc(OC)c(OC)c(OC)c2-c2c(cc3c(c2OC)OCO3)C[C@H](C)[C@]1(C)O [Schisantherin B]
Condition met
COc1ccc(-c2cc(=O)c3c(O)cc(O)cc3o2)cc1-c1c(O)cc(O)c2c(=O)cc(-c3ccc(O)cc3)oc12 [Bilobetin]
Condition met

**Query** Does activity at 10 µM meet or surpass 40% for O=c1cc(-c2ccc(Oc3c(O)cc4oc(-c5ccc(O)cc5)cc(=O)c4c3O)cc2)oc2cc(O)cc(O)c12 [Hinokiflavone] ?
**Result** Condition not met

====

# Measurement target: hSULT1A1 (Homo sapiens, UniProt P50225)
# Construct: 6-histidine tag (N); TEV site (N); made in house; host or cells: Escherichia coli BL21 (DE3), pET29a(+)
# Sequence (P50225 whole entry): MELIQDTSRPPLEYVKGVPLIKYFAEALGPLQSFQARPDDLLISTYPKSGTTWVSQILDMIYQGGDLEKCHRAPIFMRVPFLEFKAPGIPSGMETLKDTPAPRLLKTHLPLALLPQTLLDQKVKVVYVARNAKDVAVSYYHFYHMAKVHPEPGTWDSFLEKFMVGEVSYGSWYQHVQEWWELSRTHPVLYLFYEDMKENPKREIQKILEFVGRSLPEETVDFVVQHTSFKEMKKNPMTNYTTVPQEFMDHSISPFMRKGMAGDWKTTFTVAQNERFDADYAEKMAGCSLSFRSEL
# Experimental protocol: Fluorescence-based microplate inhibition assay, hSULT1A1-catalyzed HN-241 4-O-sulfation;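 further: reaction started with 200 µM PAPS at 37 °C, fluorescence read continuously (Ex 350 nm, Em 450 nm), activity expressed relative to DMSO-only control without inhibitor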
# Format: biochemical
# Experimental context: test compound 1 μM, HN-241 1 μM, 15 min; read-out: Residue activity (%) hSULT1A1
Measurement name: activity at 1 µM
State the result as a value with its unit after it.

# example entries with known answers
O=C1c2c(O)cc(O)cc2OC(c2ccc(O)c(O)c2)C1O (stereo not shown)
3.26%
COc1ccc(-c2cc(=O)c3c(O)cc(O)cc3o2)cc1-c1c(O)cc(O)c2c(=O)cc(-c3ccc(O)cc3)oc12
24%

**Query** Which activity at 1 µM value is on record for Oc1cc(O)c2c(c1)O[C@@H](c1ccc(O)c(O)c1)[C@H](O)C2 [(-)-Catechin] ?
**Result** 41.4%

**Query** Item COc1c(O)cc2c(c1O)C(=O)c1c(cc(C)c(O)c1OC)C2=O [Aurantio-obtusin] has what recorded activity at 1 µM?
**Result** 0.45%

**Query** For CC(C)=CCC[C@](C)(O)[C@H]1CC[C@]2(C)[C@@H]1[C@H](O)C[C@@H]1[C@@]3(C)CC[C@H](O)C(C)(C)[C@@H]3[C@@H](O[C@@H]3O[C@H](CO)[C@@H](O)[C@H](O)[C@H]3O[C@@H]3O[C@@H](C)[C@H](O)[C@@H](O)[C@H]3O)C[C@]12C [Ginsenoside Rg2] , what is its reported activity at 1 µM?
**Result** 113%

**Query** Which activity at 1 µM is listed for COc1cc(O)c(CC=C(C)C)c2c1C(=O)CC(c1ccc(O)cc1)O2 (stereo not shown) ?
**Result** 15.8%

**Query** Please look up its activity at 1 µM: O=c1c(O)c(-c2ccc(O)c(O)c2)oc2cc(O)cc(O)c12 [Quercetin, reference compound]
**Result** 0%

**Query** I am curious: what activity at 1 µM value has been reported for CC(C)=CCOc1c2ccoc2cc2oc(=O)ccc12 ?
**Result** 92.5%

**Query** Look at this molecule and give its reported activity at 1 µM. C[C@H](CCC(=O)O)[C@H]1CC[C@H]2[C@@H]3[C@H](O)C[C@@H]4C[C@H](O)CC[C@]4(C)[C@H]3CC[C@]12C
**Result** 96.5%

**Query** Could you share which activity at 1 µM value was measured for O=C1c2cccc(O)c2C(=O)c2c(O)cc(CO)cc21 ?
**Result** 0.21%

**Query** Which measured activity at 1 µM value corresponds to CC(C)=CC[C@@H](O)C1=CC(=O)c2c(O)ccc(O)c2C1=O ?
**Result** 64.5%

**Query** Item under review: COc1cc(-c2oc3cc(O)cc(O)c3c(=O)c2O)ccc1O . Reported activity at 1 µM?
**Result** 1.36%
